src = the supplement of paper PMC7724964

# system: T1, HOMER2 1-111 WH1 (domain begin residue: 1, domain end residue: 111), Q9NSB8
# T1 chain: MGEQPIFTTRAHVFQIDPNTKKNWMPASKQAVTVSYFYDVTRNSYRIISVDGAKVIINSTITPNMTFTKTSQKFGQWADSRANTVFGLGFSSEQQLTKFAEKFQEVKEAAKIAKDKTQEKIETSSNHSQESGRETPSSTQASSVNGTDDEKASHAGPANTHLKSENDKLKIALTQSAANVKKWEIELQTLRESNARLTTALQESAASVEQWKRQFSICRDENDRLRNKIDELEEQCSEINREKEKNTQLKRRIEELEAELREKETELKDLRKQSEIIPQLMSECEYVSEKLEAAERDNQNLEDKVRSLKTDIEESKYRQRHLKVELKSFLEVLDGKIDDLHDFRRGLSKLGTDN
# method: phage ELISA signal ratio (GST-PRM binding over GST background); higher = stronger binding of peptide-phage to the PRM
// values below are reported phage ELISA signal ratio
Could you respond with only the numeric value?

>>> print(df.to_string())
             binder        measured_attribute  observed
0  HWVIPWETVPAPHEFH  phage ELISA signal ratio      15.2
1  SHITLIHEPPYGWTTN  phage ELISA signal ratio      14.3
2  YRYIAEVPEQFVDMHR  phage ELISA signal ratio      15.5

Now look at this one.
# input binder: SDWLSTVWEHPMDWGA ; wanted: its phage ELISA signal ratio 13.5
